B1: TRIM39 (parent)
chain: ERDFPCPVCRKTSRYRSLRPNRQL

Variants of: B1
Assay: protein stability index of a GFP-peptide fusion (GPS, HEK-293T) (PSI 1-6); higher = more stable;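 also: lentivirally expressed fusions sorted by FACS into six bins by GFP to DsRed ratio, PSI derived from sequencing read proportions per bin multiplied by bin number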
Conditions: c terminus: a fixed tail appended
metric-name: protein stability index
Answer as a number with no unit attached.

[Q] Name the recorded protein stability index of the variant listed here: ERDFPCPYCRKTSRYRSLRPNRQL
[A] 1.95

[Q] Name the recorded protein stability index of the variant listed here: ERDFPCPVCRKTSRYRSLPPNRQL
[A] 1.98

[Q] Name the recorded protein stability index of the variant listed here: ERDFPCPVCRKTSRYRSLRPRRQL
[A] 2.96
